Protein target, amino acids: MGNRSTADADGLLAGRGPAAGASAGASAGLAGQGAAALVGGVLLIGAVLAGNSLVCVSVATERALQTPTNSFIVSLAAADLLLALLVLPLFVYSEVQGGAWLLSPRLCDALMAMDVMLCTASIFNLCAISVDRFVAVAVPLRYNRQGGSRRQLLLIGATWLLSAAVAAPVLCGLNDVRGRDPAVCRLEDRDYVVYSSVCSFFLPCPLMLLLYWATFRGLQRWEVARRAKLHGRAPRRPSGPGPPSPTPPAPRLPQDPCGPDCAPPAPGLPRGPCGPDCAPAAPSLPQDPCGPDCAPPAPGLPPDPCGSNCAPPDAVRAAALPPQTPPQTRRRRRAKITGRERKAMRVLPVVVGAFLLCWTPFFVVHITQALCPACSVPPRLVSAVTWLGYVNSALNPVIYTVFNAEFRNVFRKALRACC
pIC50: −log10 of the molar value.
Observation type: pIC50

INSERT INTO results (chemical_smiles, observation_type, obs_value) VALUES
  ('CCCn1c(-c2ccccc2)cc(C(=O)NCCCN2CCN(c3cccc(Cl)c3Cl)CC2)c1C', 'pIC50', 6.19);

* * *

- System: Mus musculus
- Assay remarks: Antidepressant activity in mouse assessed as decrease in duration of immobility at 10 mg/kg, po during final 5 mins of the 6 mins session by forced swimming test
- Format: functional
The source made the active and inactive calls. The rule behind the calls is not given here.
Observation type: Activity

INSERT INTO results (chemical_smiles, obs_value) VALUES
  ('CCn1c(-c2ccccc2)cc(C(=O)NCCCN2CCN(c3cccc(Cl)c3Cl)CC2)c1C', 'inactive'),
  ('CCCn1c(-c2ccccc2)cc(C(=O)NCCCN2CCN(c3cccc(Cl)c3Cl)CC2)c1C', '80%'),
  ('Cc1[nH]c(-c2ccccc2)cc1C(=O)NCCCN1CCN(c2cccc(Cl)c2Cl)CC1', 'inactive'),
  ('Cc1c(C(=O)NCCCN2CCN(c3cccc(Cl)c3Cl)CC2)cc(-c2ccccc2)n1C', '80%'),
  ('Cc1c(C(=O)NCCCN2CCN(c3cccc(Cl)c3Cl)CC2)cc(-c2ccccc2)n1N1CCCCC1', 'inactive');

* * *

- Assay remarks: Oral bioavailability in rat at 5 mg/kg
- Format: ADME, organism-based
- Assay setup: in vivo
Observation type: bioavailability (%)

INSERT INTO results (chemical_smiles, measure_unit, obs_value) VALUES
  ('Cc1c(C(=O)NCCCN2CCN(c3cccc(Cl)c3Cl)CC2)cc(-c2ccccc2)n1C.Cl', '%', 24.8);

* * *

- Assay remarks: Tmax in rat at 5 mg/kg, po
- Assay type: ADME, organism-based
- Design: dose 5 mg/kg, route oral
- Assay setup: in vivo
Reported Tmax values for a set of compounds
Observation type: Tmax (min)

INSERT INTO results (chemical_smiles, observation_type, obs_value) VALUES
  ('Cc1c(C(=O)NCCCN2CCN(c3cccc(Cl)c3Cl)CC2)cc(-c2ccccc2)n1C.Cl', 'Tmax', 45),
  ('Cc1[nH]c(-c2ccccc2)cc1C(=O)NCCCN1CCN(c2cccc(Cl)c2Cl)CC1.Cl', 'Tmax', 70);

* * *

In this section we review reported AUC values for a set of compounds.
- Assay remarks: AUC in rat plasma
- Assay type: ADME, cell-free
Observation type: AUC (ng·h/mL)

INSERT INTO assay_data (chemical_smiles, observation_type, measure_unit, obs_value) VALUES
  ('Cc1[nH]c(-c2ccccc2)cc1C(=O)NCCCN1CCN(c2cccc(Cl)c2Cl)CC1.Cl', 'AUC', 'ng·h/mL', 538),
  ('Cc1c(C(=O)NCCCN2CCN(c3cccc(Cl)c3Cl)CC2)cc(-c2ccccc2)n1C.Cl', 'AUC', 'ng·h/mL', 240);

* * *

Below are pIC50 values measured for 5-hydroxytryptamine receptor 7 (Homo sapiens).
pIC50: −log10 of the molar value.
Observation type: pIC50

INSERT INTO measurements (chemical_smiles, obs_value) VALUES
  ('Cc1c(C(=O)NCCCN2CCN(c3cccc(Cl)c3Cl)CC2)cc(-c2ccccc2)n1N1CCCCC1', 6.31),
  ('Cc1[nH]c(-c2ccccc2)cc1C(=O)NCCCN1CCN(c2cccc(Cl)c2Cl)CC1', 6.34);

* * *

- Assay remarks: Cmax in rat at 5 mg/kg, po
- Type: ADME, organism-based
- Parameters: dose 5 mg/kg, route oral
- Assay setup: in vivo
// Cmax lookup, one value per entry
Observation type: Cmax (ng/mL)

INSERT INTO assay_data (chemical_smiles, obs_value) VALUES
  ('Cc1c(C(=O)NCCCN2CCN(c3cccc(Cl)c3Cl)CC2)cc(-c2ccccc2)n1C.Cl', 118),
  ('Cc1[nH]c(-c2ccccc2)cc1C(=O)NCCCN1CCN(c2cccc(Cl)c2Cl)CC1.Cl', 245);

* * *

- Target or system: Cytochrome P450 2C9 (Homo sapiens)
- Sequence (P11712 whole entry): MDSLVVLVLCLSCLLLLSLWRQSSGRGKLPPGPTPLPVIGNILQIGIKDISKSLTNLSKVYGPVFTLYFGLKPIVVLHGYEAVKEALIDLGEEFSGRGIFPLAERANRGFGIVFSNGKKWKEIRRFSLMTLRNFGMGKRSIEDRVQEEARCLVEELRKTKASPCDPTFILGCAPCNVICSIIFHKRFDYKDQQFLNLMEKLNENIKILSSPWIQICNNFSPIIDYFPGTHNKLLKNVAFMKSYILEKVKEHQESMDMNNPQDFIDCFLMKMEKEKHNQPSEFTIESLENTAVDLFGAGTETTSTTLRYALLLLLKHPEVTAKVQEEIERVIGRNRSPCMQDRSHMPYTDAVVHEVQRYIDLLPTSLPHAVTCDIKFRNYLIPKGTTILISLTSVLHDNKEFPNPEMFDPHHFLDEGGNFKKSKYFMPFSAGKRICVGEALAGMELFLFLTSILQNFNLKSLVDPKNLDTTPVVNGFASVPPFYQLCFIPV
pIC50: −log10 of the molar value.
Observation type: pIC50

INSERT INTO measurements (chemical_smiles, observation_type, obs_value) VALUES
  ('Cc1c(C(=O)NCCCN2CCN(c3cccc(Cl)c3Cl)CC2)cc(-c2ccccc2)n1C', 'pIC50', 5.01);

* * *

- Target or system: Sodium-dependent serotonin transporter (Homo sapiens, UniProt P31645)
- Sequence (P31645 whole entry): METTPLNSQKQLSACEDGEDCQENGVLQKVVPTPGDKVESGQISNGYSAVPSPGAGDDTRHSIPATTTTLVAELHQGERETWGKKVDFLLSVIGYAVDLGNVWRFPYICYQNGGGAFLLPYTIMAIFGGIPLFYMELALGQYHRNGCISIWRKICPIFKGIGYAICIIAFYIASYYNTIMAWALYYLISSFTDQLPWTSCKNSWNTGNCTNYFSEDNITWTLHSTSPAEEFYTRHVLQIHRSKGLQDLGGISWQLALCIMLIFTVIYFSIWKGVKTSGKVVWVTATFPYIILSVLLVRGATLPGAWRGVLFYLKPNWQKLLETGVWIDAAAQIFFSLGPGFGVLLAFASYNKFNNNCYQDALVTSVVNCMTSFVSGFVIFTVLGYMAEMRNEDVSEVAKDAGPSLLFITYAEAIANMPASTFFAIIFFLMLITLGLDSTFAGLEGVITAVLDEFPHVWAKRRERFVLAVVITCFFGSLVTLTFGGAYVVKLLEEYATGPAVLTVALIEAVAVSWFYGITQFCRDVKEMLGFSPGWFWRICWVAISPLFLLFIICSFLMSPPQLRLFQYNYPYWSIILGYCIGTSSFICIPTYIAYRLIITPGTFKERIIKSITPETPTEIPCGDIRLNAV
- Assay remarks: Displacement of [3H]imipramine from human SERT expressed in HEK293 cells after 30 mins by rapid filtration assay
Reported IC50 by item:
Observation type: IC50 (µM)

INSERT INTO measurements (chemical_smiles, observation_type, obs_value) VALUES
  ('Cc1[nH]c(-c2ccccc2)cc1C(=O)NCCCN1CCN(c2cccc(Cl)c2Cl)CC1', 'IC50', 0.137),
  ('Cc1cccc(N2CCN(CCCNC(=O)c3cc(-c4ccccc4)n(N4CCCCC4)c3C)CC2)c1C', 'IC50', 0.092),
  ('Cc1c(C(=O)NCCN2CCN(c3cccc(Cl)c3Cl)CC2)cc(-c2ccccc2)n1C', 'IC50', 0.057),
  ('Cc1c(C(=O)NCCCN2CCN(c3cccc(Cl)c3)CC2)cc(-c2ccccc2)n1N1CCCCC1', 'IC50', 0.11),
  ('Cc1c(C(=O)NCCCN2CCN(c3cccc(Cl)c3)CC2)cc(-c2ccccc2)n1Cc1ccccc1', 'IC50', 0.235),
  ('Cc1c(C(=O)NCCCN2CCN(c3cccc(Cl)c3)CC2)cc(-c2ccccc2)n1CC(C)C', 'IC50', 0.11),
  ('CCCn1c(-c2ccccc2)cc(C(=O)NCCCN2CCN(c3cccc(C)c3C)CC2)c1C', 'IC50', 0.076);

* * *

- Assay remarks: AUC in rat brain
- Format: ADME, tissue-based
Observation type: AUC (ng·h/mL)

INSERT INTO measurements (chemical_smiles, observation_type, obs_value) VALUES
  ('Cc1[nH]c(-c2ccccc2)cc1C(=O)NCCCN1CCN(c2cccc(Cl)c2Cl)CC1.Cl', 'AUC', 247),
  ('Cc1c(C(=O)NCCCN2CCN(c3cccc(Cl)c3Cl)CC2)cc(-c2ccccc2)n1C.Cl', 'AUC', 82.7);

* * *

- Assay remarks: Cmax in rat brain
- Format: ADME, organism-based
Observation type: Cmax

INSERT INTO measurements (chemical_smiles, obs_value) VALUES
  ('Cc1[nH]c(-c2ccccc2)cc1C(=O)NCCCN1CCN(c2cccc(Cl)c2Cl)CC1.Cl', '90 ng/mL'),
  ('Cc1c(C(=O)NCCCN2CCN(c3cccc(Cl)c3Cl)CC2)cc(-c2ccccc2)n1C.Cl', '30 ng/mL');

* * *

- Assay remarks: AUC (0 to infinity) in rat at 1 mg/kg, iv
- Format: ADME, organism-based, Plasma
- Parameters: time infinity, dose 1 mg/kg, route intravenous
- Assay setup: plasma
Observation type: AUC(0-inf)

INSERT INTO measurements (chemical_smiles, obs_value) VALUES
  ('Cc1c(C(=O)NCCCN2CCN(c3cccc(Cl)c3Cl)CC2)cc(-c2ccccc2)n1C.Cl', '312 ng·h/mL');

* * *

- Assay remarks: Cmax in rat plasma
- Assay type: ADME, organism-based
Collected Cmax values appear next to each entry.
Observation type: Cmax

INSERT INTO assay_data (chemical_smiles, obs_value) VALUES
  ('Cc1c(C(=O)NCCCN2CCN(c3cccc(Cl)c3Cl)CC2)cc(-c2ccccc2)n1C.Cl', '70 ng/mL'),
  ('Cc1[nH]c(-c2ccccc2)cc1C(=O)NCCCN1CCN(c2cccc(Cl)c2Cl)CC1.Cl', '190 ng/mL');

* * *

The following compounds are shown together with reported Tmax values.
- Assay remarks: Tmax in rat brain
- Format: ADME, tissue-based
Observation type: Tmax

INSERT INTO assay_data (chemical_smiles, observation_type, obs_value) VALUES
  ('Cc1[nH]c(-c2ccccc2)cc1C(=O)NCCCN1CCN(c2cccc(Cl)c2Cl)CC1.Cl', 'Tmax', '2 h'),
  ('Cc1c(C(=O)NCCCN2CCN(c3cccc(Cl)c3Cl)CC2)cc(-c2ccccc2)n1C.Cl', 'Tmax', '2 h');
